- Tested on: Staphylococcus aureus V41
- test-details: standard agar-dilution assay, MIC
- Type: cell-based
- experimental-parameters: Staphylococcus aureus V41, penicillin resistant strain
# Lookup of reported MIC (minimal inhibitory concentration) keyed by entry
Respond numerically, and do not add a unit to the figure.

Known MIC (minimal inhibitory concentration) results, listed for orientation:
- molecule: "CCC1OC(=O)CC(O)C(C)C(OC2OC(C)C(OC3CC(C)(O)C(OC(=O)CC(C)C)C(C)O3)C(N(C)C)C2OC(C)=O)C(CC=O)CC(C)C(=O)C=CC(C)=CC1C (centres unmarked)"
  recorded-number: 1
- molecule: "CCC1OC(=O)CC(O)C(C)C(OC2OC(C)C(OC3CC(C)(O)C(OC(=O)Cc4ccccc4)C(C)O3)C(N(C)C)C2OC(C)=O)C(CC=O)CC(C)C(=O)C=CC(C)=CC1COC(=O)Cc1ccccc1 (centres unmarked)"
  recorded-number: 1
- molecule: "CCC1OC(=O)CC(OC(=O)COc2ccccc2)C(C)C(OC2OC(C)C(OC3CC(C)(O)C(O)C(C)O3)C(N(C)C)C2OC(C)=O)C(CC=O)CC(C)C(=O)C=CC(C)=CC1COC(=O)COc1ccccc1 (centres unmarked)"
  recorded-number: 1
- molecule: "CCC(=O)OC1C(C)OC(OC2C(C)OC(OC3C(CC=O)CC(C)C(=O)C=CC(C)=CC(C)C(CC)OC(=O)CC(O)C3C)C(O)C2N(C)C)CC1(C)O (centres unmarked)"
  recorded-number: 1
- molecule: "CCC1OC(=O)CC(OC(=O)C(Cl)(Cl)Cl)C(C)C(OC2OC(C)C(OC3CC(C)(O)C(OC(=O)C(Cl)(Cl)Cl)C(C)O3)C(N(C)C)C2OC(C)=O)C(CC=O)CC(C)C(=O)C=CC(C)=CC1COC(=O)C(Cl)(Cl)Cl (centres unmarked)"
  recorded-number: 16
- molecule: "CCC(=O)OCC1C=C(C)C=CC(=O)C(C)CC(CC=O)C(OC2OC(C)C(OC3CC(C)(O)C(OC(=O)CC)C(C)O3)C(N(C)C)C2O)C(C)C(O)CC(=O)OC1CC (centres unmarked)"
  recorded-number: 1

Ask: For the molecule CCC1OC(=O)CC(O)C(C)C(OC2OC(C)C(OC3CC(C)(O)C(OC(=O)COc4ccccc4)C(C)O3)C(N(C)C)C2OC(C)=O)C(CC=O)CC(C)C(=O)C=CC(C)=CC1COC(=O)COc1ccccc1 (centres unmarked) , give its measured MIC (minimal inhibitory concentration) value.
Result: 64

Ask: Read off the recorded MIC (minimal inhibitory concentration) for CCC(=O)OC1C(C)OC(OC2C(C)OC(OC3C(CC=O)CC(C)C(=O)C=CC(C)=CC(C)C(CC)OC(=O)CC(O)C3C)C(OC(C)=O)C2N(C)C)CC1(C)O (centres unmarked)
Result: 0.5

###

- Tested on: Pasteurella multocida 17E
- test-details: conventional broth-dilution microtiter test, MIC
- Type: cell-based
- experimental-parameters: bovine isolate
Listed below: MIC (minimal inhibitory concentration) values for each entry.

- molecule: "CCC1OC(=O)CC(O)C(C)C(OC2OC(C)C(OC3CC(C)(O)C(OC(=O)CC(C)C)C(C)O3)C(N(C)C)C2OC(C)=O)C(CC=O)CC(C)C(=O)C=CC(C)=CC1C (stereo not drawn) [Compound 18, 2'-O-Acetyl-4\"-O-Isovaleryl-DMOT]"
  MIC (minimal inhibitory concentration): 12.5
- molecule: "CCC1OC(=O)CC(O)C(C)C(OC2OC(C)C(OC3CC(C)(O)C(OC(=O)CC(C)C)C(C)O3)C(N(C)C)C2O)C(CC=O)CC(C)C(=O)C=CC(C)=CC1C (stereo not drawn) [Compound 19, 4\"-O-Isovaleryl-DMOT]"
  MIC (minimal inhibitory concentration): 6.25
- molecule: "CCC(=O)OCC1C=C(C)C=CC(=O)C(C)CC(CC=O)C(OC2OC(C)C(OC3CC(C)(O)C(OC(=O)CC)C(C)O3)C(N(C)C)C2OC(C)=O)C(C)C(O)CC(=O)OC1CC (stereo not drawn) [Compound 3, 2'-O-Acetyl-23,4\"-Di-O-Propionyl-DMT]"
  MIC (minimal inhibitory concentration): 12.5
- molecule: "CCC(=O)OC1C(C)OC(OC2C(C)OC(OC3C(CC=O)CC(C)C(=O)C=CC(C)=CC(COC(=O)C(Cl)(Cl)Cl)C(CC)OC(=O)CC(O)C3C)C(OC(C)=O)C2N(C)C)CC1(C)O (stereo not drawn) [Compound 14]"
  MIC (minimal inhibitory concentration): 12.5
- molecule: "CCC1OC(=O)CC(O)C(C)C(OC2OC(C)C(OC3CC(C)(O)C(OC(=O)COc4ccccc4)C(C)O3)C(N(C)C)C2OC(C)=O)C(CC=O)CC(C)C(=O)C=CC(C)=CC1COC(=O)COc1ccccc1 (stereo not drawn) [Compound 7, 2'-O-Acetyl-4\",23-Di-O-Phenoxyacetyl-DMT]"
  MIC (minimal inhibitory concentration): "> 50"
- molecule: "CCC1OC(=O)CC(O)C(C)C(OC2OC(C)C(OC3CC(C)(O)C(OC(=O)Cc4ccccc4)C(C)O3)C(N(C)C)C2OC(C)=O)C(CC=O)CC(C)C(=O)C=CC(C)=CC1COC(=O)Cc1ccccc1 (stereo not drawn) [Compound 5, 2'-O-Acetyl-23,4\"-Di-O-Phenylacetyl-DMT]"
  MIC (minimal inhibitory concentration): "> 50"
- molecule: "CCC(=O)OCC1C=C(C)C=CC(=O)C(C)CC(CC=O)C(OC2OC(C)C(OC3CC(C)(O)C(OC(=O)CC)C(C)O3)C(N(C)C)C2O)C(C)C(O)CC(=O)OC1CC (stereo not drawn) [Compound 4, 23,4\"-Di-O-Propionyl-DMT]"
  MIC (minimal inhibitory concentration): 12.5
- molecule: "CCC1OC(=O)CC(O)C(C)C(OC2OC(C)C(OC3CC(C)(O)C(OC(C)=O)C(C)O3)C(N(C)C)C2OC(C)=O)C(CC=O)CC(C)C(=O)C=CC(C)=CC1COC(C)=O (stereo not drawn) [Compound 1, 2',4\",23-Tri-O-Acetyl-DMT]"
  MIC (minimal inhibitory concentration): 12.5

Let us examine a further case.
Ask: Identify measured MIC (minimal inhibitory concentration) associated with CCC1OC(=O)CC(O)C(C)C(OC2OC(C)C(OC3CC(C)(O)C(OC(C)=O)C(C)O3)C(N(C)C)C2O)C(CC=O)CC(C)C(=O)C=CC(C)=CC1COC(C)=O (stereo not drawn) [Compound 2, 23,4"-Di-O-Acetyl-DMT]
Result: 6.25

###

Each record here notes measured MIC (minimal inhibitory concentration).
- Tested on: Haemophilus influenzae Holt
- test-details: standard agar-dilution assay, MIC
- Type: cell-based
- experimental-parameters: ampicillin sensitive strain
Reply: number alone, nothing else.

Some solved entries appear below for comparison.
- compound: "CCC1OC(=O)CC(O)C(C)C(OC2OC(C)C(OC3CC(C)(O)C(OC(=O)CC(C)C)C(C)O3)C(N(C)C)C2OC(C)=O)C(CC=O)CC(C)C(=O)C=CC(C)=CC1C (centres unmarked) [Compound 18, 2'-O-Acetyl-4\"-O-Isovaleryl-DMOT]"
  readout-label: "MIC (minimal inhibitory concentration)"
  recorded-number: 32
- compound: "CCC(=O)OC1C(C)OC(OC2C(C)OC(OC3C(CC=O)CC(C)C(=O)C=CC(C)=CC(COC(=O)C(Cl)(Cl)Cl)C(CC)OC(=O)CC(O)C3C)C(OC(C)=O)C2N(C)C)CC1(C)O (centres unmarked) [Compound 14]"
  readout-label: "MIC (minimal inhibitory concentration)"
  recorded-number: 8

Ask: For the compound CCC1OC(=O)CC(O)C(C)C(OC2OC(C)C(OC3CC(C)(O)C(OC(=O)CC(C)C)C(C)O3)C(N(C)C)C2O)C(CC=O)CC(C)C(=O)C=CC(C)=CC1C (centres unmarked) [Compound 19, 4"-O-Isovaleryl-DMOT] , report MIC (minimal inhibitory concentration).
Result: 8

Ask: # return recorded MIC (minimal inhibitory concentration) for input CCC(=O)OC1C(C)OC(OC2C(C)OC(OC3C(CC=O)CC(C)C(=O)C=CC(C)=CC(C)C(CC)OC(=O)CC(O)C3C)C(O)C2N(C)C)CC1(C)O (centres unmarked) [Compound 24, 4"-O-Propionyl-DMOT]
Result: 8

Ask: Read off the recorded MIC (minimal inhibitory concentration) for CCC1OC(=O)CC(OC(=O)C(Cl)(Cl)Cl)C(C)C(OC2OC(C)C(OC3CC(C)(O)C(O)C(C)O3)C(N(C)C)C2OC(C)=O)C(CC=O)CC(C)C(=O)C=CC(C)=CC1COC(=O)C(Cl)(Cl)Cl (centres unmarked) [Compound 12]
Result: 32

###

- Tested on: Streptococcus pneumoniae Park I
- test-details: standard agar-dilution assay, MIC
- Assay type: cell-based
readout-label: MIC (minimal inhibitory concentration)
Give your answer as a number; write no unit.

Illustrative cases are given below, each with its answer.
- molecule: "CCC1OC(=O)CC(O)C(C)C(OC2OC(C)C(OC3CC(C)(O)C(OC(=O)Cc4ccccc4)C(C)O3)C(N(C)C)C2O)C(CC=O)CC(C)C(=O)C=CC(C)=CC1COC(=O)Cc1ccccc1 (stereo not drawn)"
  MIC (minimal inhibitory concentration): 0.125
- molecule: "CCC(=O)OC1CC(=O)OC(CC)C(COC(=O)C(Cl)(Cl)Cl)C=C(C)C=CC(=O)C(C)CC(CC=O)C(OC2OC(C)C(OC3CC(C)(O)C(OC(=O)CC)C(C)O3)C(N(C)C)C2OC(C)=O)C1C (stereo not drawn)"
  MIC (minimal inhibitory concentration): 0.06

Ask: Quote Streptococcus pneumoniae Park I MIC (minimal inhibitory concentration) for entry CCC1OC(=O)CC(O)C(C)C(OC2OC(C)C(OC3CC(C)(O)C(OC(=O)CC(C)C)C(C)O3)C(N(C)C)C2OC(C)=O)C(CC=O)CC(C)C(=O)C=CC(C)=CC1C (stereo not drawn) .
Result: 0.06

Ask: Fill in MIC (minimal inhibitory concentration) for CCC(=O)OC1CC(=O)OC(CC)C(CO)C=C(C)C=CC(=O)C(C)CC(CC=O)C(OC2OC(C)C(OC3CC(C)(O)C(OC(=O)CC)C(C)O3)C(N(C)C)C2O)C1C (stereo not drawn) tested with Streptococcus pneumoniae Park I.
Result: 0.06

Ask: Answer with MIC (minimal inhibitory concentration) of CCC(=O)OCC1C=C(C)C=CC(=O)C(C)CC(CC=O)C(OC2OC(C)C(OC3CC(C)(O)C(OC(=O)CC)C(C)O3)C(N(C)C)C2OC(C)=O)C(C)C(OC(=O)CC)CC(=O)OC1CC (stereo not drawn) measured for Streptococcus pneumoniae Park I.
Result: 0.25

Ask: Name the value of MIC (minimal inhibitory concentration) reported for CCC1OC(=O)CC(O)C(C)C(OC2OC(C)C(OC3CC(C)(O)C(OC(C)=O)C(C)O3)C(N(C)C)C2OC(C)=O)C(CC=O)CC(C)C(=O)C=CC(C)=CC1COC(C)=O (stereo not drawn) when tested on Streptococcus pneumoniae Park I.
Result: 0.125

Ask: Print Streptococcus pneumoniae Park I MIC (minimal inhibitory concentration) for CCC(=O)OC1C(C)OC(OC2C(C)OC(OC3C(CC=O)CC(C)C(=O)C=CC(C)=CC(CO)C(CC)OC(=O)CC(O)C3C)C(O)C2N(C)C)CC1(C)O (stereo not drawn) .
Result: 0.06

Ask: Look up and report measured MIC (minimal inhibitory concentration) (Streptococcus pneumoniae Park I) for the following molecule: CCC1OC(=O)CC(OC(=O)COc2ccccc2)C(C)C(OC2OC(C)C(OC3CC(C)(O)C(O)C(C)O3)C(N(C)C)C2OC(C)=O)C(CC=O)CC(C)C(=O)C=CC(C)=CC1COC(=O)COc1ccccc1 (stereo not drawn)
Result: 0.125

Ask: Write MIC (minimal inhibitory concentration) of CCC(=O)OCC1C=C(C)C=CC(=O)C(C)CC(CC=O)C(OC2OC(C)C(OC3CC(C)(O)C(OC(=O)CC)C(C)O3)C(N(C)C)C2O)C(C)C(O)CC(=O)OC1CC (stereo not drawn) ; system used: Streptococcus pneumoniae Park I
Result: 0.06
